Hey, just so you know, these numbers are from patent US20250368742A1.

- system under test: T1, MICA008-ECD-HISAvi (human)
- T1 construct: Two sources under one name in the two kinetic assays; also called MICA008 polypeptide
- T1 chain: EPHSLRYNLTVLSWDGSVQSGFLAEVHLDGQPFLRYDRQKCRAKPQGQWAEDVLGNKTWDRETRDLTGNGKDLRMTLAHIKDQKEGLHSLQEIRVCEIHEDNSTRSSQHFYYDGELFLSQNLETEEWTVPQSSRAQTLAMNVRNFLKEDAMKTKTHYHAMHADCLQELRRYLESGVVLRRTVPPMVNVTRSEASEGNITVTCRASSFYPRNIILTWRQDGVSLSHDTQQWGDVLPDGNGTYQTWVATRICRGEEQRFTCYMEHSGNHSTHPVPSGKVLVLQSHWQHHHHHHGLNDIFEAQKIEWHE
- test description: SPR (Carterra); antibody captured by anti-human Fc, monomeric ECD antigen injected;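 also: dissociation phase followed for about 10 min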
Examples of binders with documented Kd follow.
reported endpoint: Kd (nM)

binder	unit abbrev	assay value
13A9 (antibody, human IgG1, kappa, V domains shown) VH: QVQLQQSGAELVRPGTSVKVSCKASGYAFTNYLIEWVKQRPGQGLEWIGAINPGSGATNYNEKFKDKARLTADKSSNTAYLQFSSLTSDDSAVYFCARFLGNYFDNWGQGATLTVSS VL: DIQMTQSPASLSASVGETVTITCRASGNIHSYLAWYQQKQGKSPQLLVYYAETLADGVPSRFSGRGSGTQYSLKINSLQPEDFGSYFCQQFWTTPYTFGGGTKVEIKR	nM	23.2
1D5 (antibody, human IgG1, kappa, V domains shown, also called ID5) VH: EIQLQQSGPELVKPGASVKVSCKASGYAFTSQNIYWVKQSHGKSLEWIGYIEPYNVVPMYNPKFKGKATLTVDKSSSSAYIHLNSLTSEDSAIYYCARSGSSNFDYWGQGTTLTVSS VL: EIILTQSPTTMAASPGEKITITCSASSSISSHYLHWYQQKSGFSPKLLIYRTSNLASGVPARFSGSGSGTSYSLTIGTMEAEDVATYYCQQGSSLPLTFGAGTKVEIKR	nM	1.79
#31 (antibody, human IgG1, V domains shown, also called PL116D11; Hit ID 31) VH: EVQLQQSGPELVKPGASVKVSCKASGYAFTKYNIYWVKQSHGKSLEWIGYIDPYNGGTVQNQKFKGKATLTVDKSSSTAYMHLNSLTSEDSAVYYCATTDGYSLFTYWGQGTLVTVSS VL: DIQMTQTTSSLSASLGDRVTISCRASQDIGNYLNWYQQKPDGTVKLLIYYTSRLHSGVPSRFSGSGSGTDYSLTISNLEQEDIATYFCQQGNTLPFTFGSGTKLEIK	nM	14.4
#38 (antibody, human IgG1, V domains shown, also called PL114H02; Hit ID 38) VH: QVQLQQSGAELARPGASVKLSCKASGYTFSIHWMQWVKQRPGQGLEWIGAIYPGNGDTKYTQKFKGKATLTADKSSSTAYMQLSNLASEDSAVYYCATLYGNYEAYWGQGTLVTVSA VL: DIVLTQSPASLSASVGETVTITCGASENIYGALNWYQRKQGKSPQLLIYGTTNLADGMSSRFSGSGSGRQYSLKISSLHPDDVATYYCQNVLTTPPWTFGGGTKLEIK	nM	7.04
3F9 (antibody, human IgG1, kappa, V domains shown, also called benchmark 3F9) VH: QVQLVESGGGLVKPGGSLRLSCAASGFTFSNYAMSWIRQAPGKGLEWVSYISPGGDYIYYADSVKGRFTISRDNAKNSLYLQMNSLRAEDTAVYYCTTDRRHYGSYAMDYWGQGTLVTVSS VL: DIVMTQSPLSLPVTPGEPASISCRSSKSLLHSNLNTYLYWFLQKPGQSPQILIYRMSNLASGVPDRFSGSGSGTAFTLKISRVEAEDVGVYYCMQHLEYPFTFGPGTKLEIKR	nM	2.82
